B1: TRIM63 (parent)
chain: ANPYWTSRGSSVSMSGGRFRCPTC

- Variants of: B1
- MEASUREMENT PROTOCOL: protein stability index of a GFP-peptide fusion (GPS, HEK-293T) (PSI 1-6); higher = more stable;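 note: lentivirally expressed fusions sorted by FACS into six bins by GFP to DsRed ratio, PSI derived from sequencing read proportions per bin multiplied by bin number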
- CONDITION DETAILS: c terminus: a fixed tail appended
protein stability index listing for selected variants.
Keep the answer to the number alone.

{"ENTRY SEQUENCE": "ANPYWTSRGHSVSMSGGRFRCPTC", "ASSAY RESULT": 2.44}

Input: Name the recorded protein stability index for `ANPYWTSRESSVSMSGGRFRCPTC` .
Output: 1.6

Input: Further, for `ANPYWTSMGSSVSMSGGRFRCPTC` ?
Output: 1.39

Input: Moving on to `ANPYWTSRGSTVSMSGGRFRCPTC`
Output: 2.18

Input: Subsequent entry: `MNPYWTSRGSSVSMSGGRFRCPTC`
Output: 2.07

Input: Same for `ANPYTTSRGSSVSMSGGRFRCPTC`
Output: 1.76

Input: For `ANPYWTSRGSKVSMSGGRFRCPTC` then?
Output: 1.29

Input: Quick one: `AYPYWTSRGSSVSMSGGRFRCPTC`
Output: 2.14

Input: Consider next the variant `ANPYWTSRGSSVPMSGGRFRCPTC` in the same way.
Output: 2.21

Input: What do we get for `ANPYWTSRGSSVSMSGGRFRCPTV` ?
Output: 2.3

Input: Also `ANPYWTSRGSSVSMSGGRFRCPTH` , if possible.
Output: 2.29

Input: `ANPYWTSRGSSVGMSGGRFRCPTC` , same question.
Output: 3.37

Input: Do the same for `ANPYWTSRGSSVSMDGGRFRCPTC` please
Output: 2.3

Input: Note, next up: `ANPYWTSRASSVSMSGGRFRCPTC`
Output: 1.7

Input: Proceed to `ANPYWTSRGSNVSMSGGRFRCPTC`
Output: 2.32

Input: Query `ANPYWTSRGVSVSMSGGRFRCPTC` next
Output: 1.72
